B1: ZNF449 (parent)
chain: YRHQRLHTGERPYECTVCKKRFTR

variants of: B1; assay: protein stability index of a GFP-peptide fusion (GPS, HEK-293T) (PSI 1-6); higher = more stable; details: c terminus: a fixed tail appended;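 also: lentivirally expressed fusions sorted by FACS into six bins by GFP to DsRed ratio, PSI derived from sequencing read proportions per bin multiplied by bin number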
Reported protein stability index is given for each of the following variants.

variant.label | protein stability index
E10C | 2.57
H7G | 2.14
F22S | 3.06
R5N | 2.21
G9P | 2.04
Y13W | 2.44
T16C | 2.09
E10N | 2.6
H7M | 1.97
R2I | 2.65
R2P | 1.63
L6G | 2.61
R11H | 2.43
R24P | 2.75
Y13Q | 2.67
F22Q | 2.66
E10S | 2.62
P12H | 2.26
C15N | 3.44
T8M | 2.83
Y13G | 2.55
L6P | 2.4
V17T | 2.85
Q4S | 2.35
Y13K | 2.25
P12C | 2.37
Y13F | 2.86
E10K | 2.15
R24V | 2.51
G9C | 3.86
R24L | 2.39
F22R | 3.19
T23N | 2.28
T16K | 2.78
C18I | 3.15
V17F | 2.37
R5D | 2.06
Y13V | 2.21
K19P | 2.69

Just for reference, the supplement of paper PMC10567573 is where these values come from.
